Test system: 697B cells, BCR-induced NF-kB luciferase reporter luminescence
assayMethodText: inhibitors of BCR-induced NF-kB activation, dose response, 697B cells, luciferase luminescence (AID 489023)
Activity calls are given as the source filed them. How the calls were made is not given here.
Classes used: active, inactive

[
  {
    "molecule": "COc1ccc(-c2ccc(N(C)C)cc2)cc1[C@H]1[C@H]2C=CC[C@@H](C)[C@@H]2C(=O)N1Cc1ccccc1",
    "classification": "inactive"
  },
  {
    "molecule": "Cc1nc([N+](=O)[O-])c(Sc2nc3ccc([N+](=O)[O-])cc3[nH]2)n1Cc1ccccc1",
    "classification": "active"
  },
  {
    "molecule": "COc1ccc(-c2noc(N3CCC(C(=O)Nc4ccc(F)cc4F)CC3)n2)cc1",
    "classification": "inactive"
  },
  {
    "molecule": "O=C1CCC2S/C(=C/Nc3ccc(C(F)(F)F)cc3)C(=O)N12 (stereo not drawn)",
    "classification": "active"
  },
  {
    "molecule": "Cc1ccc(C(=O)NNC(=O)CCCN2C(=O)/C(=C/c3ccccc3Cl)SC2=S)cc1",
    "classification": "inactive"
  },
  {
    "molecule": "COc1cc(-c2nc(C(=O)NCC3CCCO3)cc3c2[nH]c2ccccc23)cc(OC)c1OC (stereo not drawn)",
    "classification": "active"
  },
  {
    "molecule": "O=C(CN1C(=O)c2ccccc2S1(=O)=O)N1CCc2ccccc21",
    "classification": "active"
  },
  {
    "molecule": "Cc1ccc(/C=C2\\SC(=S)N(CCCC(=O)Nc3ccccn3)C2=O)cc1",
    "classification": "active"
  },
  {
    "molecule": "COc1ccc(-n2nnnc2S(=O)(=O)CC(=O)N2CCCCC2)cc1",
    "classification": "active"
  },
  {
    "molecule": "Cc1nc2cc(-c3ccc(Cl)cc3)nn2c(C)c1CCC(=O)NC(C)c1ccc2c(c1)OCCO2 (stereo not drawn)",
    "classification": "inactive"
  },
  {
    "molecule": "COc1ccc(C(=O)Nc2nnc(SCC(=O)Nc3ccc(NC(C)=O)cc3)s2)c(OC)c1",
    "classification": "inactive"
  },
  {
    "molecule": "COc1ccc(/C=C/c2ccccc2)cc1[C@H]1[C@H]2C=CC[C@@H](C)[C@@H]2C(=O)N1Cc1ccccc1",
    "classification": "inactive"
  },
  {
    "molecule": "COc1ccc(-c2ccoc2)cc1[C@H]1[C@H]2C=CC[C@@H](C)[C@@H]2C(=O)N1Cc1ccccc1",
    "classification": "inactive"
  },
  {
    "molecule": "CCn1c(=O)cc(OCC(=O)N(C)C2CCCCC2)c2ccccc21",
    "classification": "inactive"
  },
  {
    "molecule": "Cn1c(=O)cc(SCC(=O)N2CCCC2)c2cc(Cl)ccc21",
    "classification": "inactive"
  },
  {
    "molecule": "O=C(Nc1cccc(S(=O)(=O)Nc2ccc(Cl)cc2)c1)c1ccc(Cl)nc1",
    "classification": "inactive"
  },
  {
    "molecule": "CCc1ccc2[nH]c3nc(N/N=C/c4cccc(O)c4)nnc3c2c1",
    "classification": "inactive"
  },
  {
    "molecule": "O=C(CSCCO)Nc1ccc(C23CC4CC(CC(C4)C2)C3)cc1",
    "classification": "inactive"
  },
  {
    "molecule": "COc1cccc(N2CCN(c3ncnc4c3[nH]c3ccc(F)cc34)CC2C)c1 (stereo not drawn)",
    "classification": "active"
  },
  {
    "molecule": "CCN1C(=O)c2cccc3c(S(=O)(=O)NCC4CCCO4)ccc1c23 (stereo not drawn)",
    "classification": "inactive"
  },
  {
    "molecule": "COc1ccc(/C=N\\NC(=O)c2sccc2C)cc1Cn1nc(C)cc1C",
    "classification": "inactive"
  },
  {
    "molecule": "CCNC(=O)CCc1nc(-c2ccc(C(C)(C)C)cc2)no1",
    "classification": "active"
  },
  {
    "molecule": "Cc1nc2ccccn2c1C(=O)/C=C/c1cccc([N+](=O)[O-])c1",
    "classification": "inactive"
  }
]
